System: Cryptococcus neoformans
ASSAY OVERVIEW: checkerboard drug interaction (FICI, MICc)
Assay type: cell-based
CONDITION DESCRIPTION: C. neoformans; ITR:INH combination
Use 1 as the dividing line for FICI, with the line itself on the met side and lower values as not met.

{"columns": ["MOLECULE", "CLASS LABEL"],
 "data": [
  ["CCCCCCCCCCCCN1CCC[C@H]1C(=O)N[C@H](CC(=O)OC)C(=O)OC [dmPDA12]", "met"],
  ["O=P(O)(O)C(O)(Cn1ccnc1)P(=O)(O)O [ZOL, zoledronate]", "not met"],
  ["CCCCCCCCCN1CCC[C@H]1C(=O)N[C@@H](CC(=O)OC)C(=O)OC [dmPLA9]", "met"],
  ["CCCCCCCCCCCN1CCC[C@H]1C(=O)N[C@H](CC(=O)OC)C(=O)OC [dmPDA11]", "not met"],
  ["CCCCCCCCCN1CCC[C@H]1C(=O)N[C@H](CC(=O)OC)C(=O)OC [dmPDA9]", "met"],
  ["CCCCCCCCCCCCN1CCC[C@H]1C(=O)N[C@H](CC(=O)O)C(=O)O [PDA12]", "met"],
  ["CCCCCCCCCCN1CCC[C@H]1C(=O)N[C@@H](CC(=O)OC)C(=O)OC [dmPLA10]", "not met"],
  ["CCCCCCCCCCCN1CCC[C@H]1C(=O)N[C@@H](CC(=O)OC)C(=O)OC [dmPLA11]", "met"],
  ["CCCCCCCCCCCN1CCC[C@H]1C(=O)N[C@H](CC(=O)O)C(=O)O [PDA11]", "met"],
  ["CCCCCCCCCCN1CCC[C@H]1C(=O)N[C@H](CC(=O)OC)C(=O)OC [dmPDA10]", "not met"],
  ["CCCCCCCCCCCN1CCC[C@H]1C(=O)N[C@@H](CC(=O)O)C(=O)O [PLA11]", "met"],
  ["CCCCCCCCCCCCN1CCC[C@H]1C(=O)N[C@@H](CC(=O)OC)C(=O)OC [dmPLA12]", "met"],
  ["CCCCCCCCCN1CCC[C@H]1C(=O)N[C@H](CC(=O)O)C(=O)O [PDA9]", "met"],
  ["CCCCCCCCCN1CCC[C@H]1C(=O)N[C@@H](CC(=O)O)C(=O)O [PLA9]", "met"]
]}

====

Test system: Cryptococcus neoformans
ASSAY OVERVIEW: checkerboard drug interaction (FICI, MICc);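 also: antifungal plus FPPS inhibitor pairs tested against Cryptococcus neoformans by simplified diagonal checkerboard screening, FICI computed under the Loewe additivity model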
Type: cell-based
CONDITION DESCRIPTION: C. neoformans; KET:INH combination

{"columns": ["COMPOUND", "LT GT EQ", "FICI"],
 "data": [
  ["CCCCCCCCCN1CCC[C@H]1C(=O)N[C@@H](CC(=O)O)C(=O)O [PLA9]", "≥", 4],
  ["CCCCCCCCCCN1CCC[C@H]1C(=O)N[C@@H](CC(=O)OC)C(=O)OC [dmPLA10]", "=", 0.75],
  ["CCCCCCCCCN1CCC[C@H]1C(=O)N[C@H](CC(=O)O)C(=O)O [PDA9]", "≥", 4],
  ["CCCCCCCCCCCN1CCC[C@H]1C(=O)N[C@@H](CC(=O)O)C(=O)O [PLA11]", "≥", 4],
  ["CCCCCCCCCN1CCC[C@H]1C(=O)N[C@@H](CC(=O)OC)C(=O)OC [dmPLA9]", "=", 3]
]}

====

Tested on: Saccharomyces cerevisiae
ASSAY OVERVIEW: MIC/MFC broth microdilution (CLSI)
Format: cell-based
CONDITION DESCRIPTION: Saccharomyces cerevisiae S288c
Reported MIC / MEC values for a set of molecules
METRIC: MIC / MEC

{"columns": ["MOLECULE", "OBSERVED MEASUREMENT"],
 "data": [
  ["CC(=O)N1CCN(c2ccc(OCC3COC(Cn4ccnc4)(c4ccc(Cl)cc4Cl)O3)cc2)CC1 (stereo not drawn)", "1 mg/L"],
  ["Nc1nc(=O)[nH]cc1F", "1 mg/L"],
  ["C[C@@H]1[C@H](O)[C@@H](C)/C=C/C=C/C=C/C=C/C=C/C=C/C=C/[C@H](O[C@@H]2O[C@H](C)[C@@H](O)[C@H](N)[C@@H]2O)C[C@@H]2O[C@](O)(C[C@@H](O)C[C@@H](O)[C@H](O)CC[C@@H](O)C[C@@H](O)CC(=O)O[C@H]1C)C[C@H](O)[C@H]2C(=O)O", "0.25 mg/L"]
]}

====

Reported INH MICc (ITR:INH) values for a set of molecules
Test system: Saccharomyces cerevisiae
ASSAY OVERVIEW: checkerboard drug interaction (FICI, MICc)
Assay type: cell-based
Design: unit not given beside the values
CONDITION DESCRIPTION: MIC of the inhibitor in combination with itraconazole
METRIC: INH MICc (ITR:INH)

{"columns": ["TEST SMILES", "MEASURED ON", "METRIC", "OBSERVED MEASUREMENT"],
 "data": [
  ["CCCCCCCCCN1CCC[C@H]1C(=O)N[C@H](CC(=O)OC)C(=O)OC", "Saccharomyces cerevisiae", "INH MICc (ITR:INH)", 64],
  ["CCCCCCCCCCCCN1CCC[C@H]1C(=O)N[C@H](CC(=O)O)C(=O)O", "Saccharomyces cerevisiae", "INH MICc (ITR:INH)", 32],
  ["CCCCCCCCCCCN1CCC[C@H]1C(=O)N[C@H](CC(=O)O)C(=O)O", "Saccharomyces cerevisiae", "INH MICc (ITR:INH)", 128],
  ["CCCCCCCCCCCCN1CCC[C@H]1C(=O)N[C@@H](CC(=O)OC)C(=O)OC", "Saccharomyces cerevisiae", "INH MICc (ITR:INH)", 1],
  ["CCCCCCCCCN1CCC[C@H]1C(=O)N[C@H](CC(=O)O)C(=O)O", "Saccharomyces cerevisiae", "INH MICc (ITR:INH)", 16],
  ["CCCCCCCCCCCCN1CCC[C@H]1C(=O)N[C@H](CC(=O)OC)C(=O)OC", "Saccharomyces cerevisiae", "INH MICc (ITR:INH)", 4],
  ["CCCCCCCCCCN1CCC[C@H]1C(=O)N[C@H](CC(=O)OC)C(=O)OC", "Saccharomyces cerevisiae", "INH MICc (ITR:INH)", 16],
  ["CCCCCCCCCCCN1CCC[C@H]1C(=O)N[C@@H](CC(=O)OC)C(=O)OC", "Saccharomyces cerevisiae", "INH MICc (ITR:INH)", 2],
  ["CCCCCCCCCCCN1CCC[C@H]1C(=O)N[C@H](CC(=O)OC)C(=O)OC", "Saccharomyces cerevisiae", "INH MICc (ITR:INH)", 64]
]}

====

System: eight fungal species
ASSAY OVERVIEW: MIC/MFC summary across the eight fungal species of Table 1
Format: cell-based
CONDITION DESCRIPTION: read-out: Geometric mean MIC
Label Met when MIC is strictly below 30 µg/mL; otherwise label Not met.

{"columns": ["MOLECULE", "MEASURED ON", "CLASS LABEL"],
 "data": [
  ["CCCCCCCCCCCN1CCC[C@H]1C(=O)N[C@H](CC(=O)O)C(=O)O [PDA11]", "eight fungal species", "Not met"],
  ["CCCCCCCCCCN1CCC[C@H]1C(=O)N[C@@H](CC(=O)OC)C(=O)OC [dmPLA10]", "eight fungal species", "Met"],
  ["CC(=O)N1CCN(c2ccc(OCC3COC(Cn4ccnc4)(c4ccc(Cl)cc4Cl)O3)cc2)CC1 (stereo not drawn) [KET, ketoconazole]", "eight fungal species", "Met"],
  ["O=P(O)(O)C(O)(Cn1ccnc1)P(=O)(O)O [ZOL, zoledronate]", "eight fungal species", "Not met"],
  ["CCCCCCCCCCCN1CCC[C@H]1C(=O)N[C@@H](CC(=O)O)C(=O)O [PLA11]", "eight fungal species", "Not met"],
  ["CCCCCCCCCCCN1CCC[C@H]1C(=O)N[C@H](CC(=O)OC)C(=O)OC [dmPDA11]", "eight fungal species", "Not met"],
  ["CCCCCCCCCN1CCC[C@H]1C(=O)N[C@H](CC(=O)O)C(=O)O [PDA9]", "eight fungal species", "Not met"],
  ["CCCCCCCCCCCCN1CCC[C@H]1C(=O)N[C@@H](CC(=O)OC)C(=O)OC [dmPLA12]", "eight fungal species", "Not met"]
]}

====

System: Scedosporium apiospermum
ASSAY OVERVIEW: checkerboard drug interaction (FICI, MICc)
Assay type: cell-based
CONDITION DESCRIPTION: in combination with 10-ZOL

{"columns": ["COMPOUND", "antifungal MICc"],
 "data": [
  ["C[C@@H](c1ncncc1F)[C@](O)(Cn1cncn1)c1ccc(F)cc1F", 0.5],
  ["CC(=O)N1CCN(c2ccc(OCC3COC(Cn4ccnc4)(c4ccc(Cl)cc4Cl)O3)cc2)CC1 (stereo not drawn)", 4],
  ["C[C@@H]1[C@H](O)[C@@H](C)/C=C/C=C/C=C/C=C/C=C/C=C/C=C/[C@H](O[C@@H]2O[C@H](C)[C@@H](O)[C@H](N)[C@@H]2O)C[C@@H]2O[C@](O)(C[C@@H](O)C[C@@H](O)[C@H](O)CC[C@@H](O)C[C@@H](O)CC(=O)O[C@H]1C)C[C@H](O)[C@H]2C(=O)O", 2],
  ["CC[C@H](C)C[C@H](C)CCCCCCCCC(=O)N[C@H]1C[C@@H](O)[C@@H](NCCN)NC(=O)[C@@H]2[C@@H](O)CCN2C(=O)[C@H]([C@H](O)CCN)NC(=O)[C@H]([C@H](O)[C@@H](O)c2ccc(O)cc2)NC(=O)[C@@H]2C[C@@H](O)CN2C(=O)[C@H]([C@@H](C)O)NC1=O", 16],
  ["Nc1nc(=O)[nH]cc1F", 256],
  ["CCC(C)n1ncn(-c2ccc(N3CCN(c4ccc(OCC5COC(Cn6cncn6)(c6ccc(Cl)cc6Cl)O5)cc4)CC3)cc2)c1=O (stereo not drawn)", 4]
]}
